src = ChEMBL document CHEMBL4052823

protocol-description: Half life in CD1 mouse at 5 mg/kg, iv
Assay type: ADME, organism-based
conditions-used: in vivo
experimental-endpoint: half-life (min)
Give the number; min is assumed, so skip it.

Study these solved cases before continuing.
| molecule | numeric-result |
| --- | --- |
| CN[C@H](CC(C)C)C(=O)N[C@H]1C(=O)N[C@@H](CC(N)=O)C(=O)N[C@H]2C(=O)N[C@H]3C(=O)N[C@H](C(=O)N[C@H](C(=O)O)c4cc(O)c(CNCCO[C@@H]5O[C@H](CO)[C@H](O)[C@H](O)[C@H]5O)c(O)c4-c4cc3ccc4O)[C@H](O)c3ccc(c(Cl)c3)Oc3cc2cc(c3O[C@@H]2O[C@H](CO)[C@@H](O)[C@H](O)[C@H]2O[C@H]2C[C@](C)(NCc3ccc(-c4ccc(C(F)(F)F)cc4)cc3)[C@H](O)[C@H](C)O2)Oc2ccc(cc2Cl)[C@H]1O | 176 |
| CN[C@H](CC(C)C)C(=O)N[C@H]1C(=O)N[C@@H](CC(N)=O)C(=O)N[C@H]2C(=O)N[C@H]3C(=O)N[C@H](C(=O)N[C@H](C(=O)O)c4cc(O)c(CN[C@H]5C(O)O[C@H](CO)[C@H](O)[C@@H]5O)c(O)c4-c4cc3ccc4O)[C@H](O)c3ccc(c(Cl)c3)Oc3cc2cc(c3O[C@@H]2O[C@H](CO)[C@@H](O)[C@H](O)[C@H]2O[C@H]2C[C@](C)(NCc3ccc(-c4ccc(Cl)cc4)cc3)[C@H](O)[C@H](C)O2)Oc2ccc(cc2Cl)[C@H]1O (some centres undefined) | 229 |
| CN[C@H](CC(C)C)C(=O)N[C@H]1C(=O)N[C@@H](CC(N)=O)C(=O)N[C@H]2C(=O)N[C@H]3C(=O)N[C@H](C(=O)N[C@H](C(=O)O)c4cc(O)c(CN[C@H]5C(O)O[C@H](CO)[C@H](O)[C@@H]5O)c(O)c4-c4cc3ccc4O)[C@H](O)c3ccc(c(Cl)c3)Oc3cc2cc(c3O[C@@H]2O[C@H](CO)[C@@H](O)[C@H](O)[C@H]2O[C@H]2C[C@](C)(NCc3ccc(-c4ccc(C(F)(F)F)cc4)cc3)[C@H](O)[C@H](C)O2)Oc2ccc(cc2Cl)[C@H]1O (some centres undefined) | 207 |

Attention now turns to another entry.
Problem: Consider the molecule CN[C@H](CC(C)C)C(=O)N[C@H]1C(=O)N[C@@H](CC(N)=O)C(=O)N[C@H]2C(=O)N[C@H]3C(=O)N[C@H](C(=O)N[C@H](C(=O)O)c4cc(O)cc(O)c4-c4cc3ccc4O)[C@H](O)c3ccc(c(Cl)c3)Oc3cc2cc(c3O[C@@H]2O[C@H](CO)[C@@H](O)[C@H](O)[C@H]2O[C@H]2C[C@](C)(NCc3ccc(-c4ccc(C(F)(F)F)cc4)cc3)[C@H](O)[C@H](C)O2)Oc2ccc(cc2Cl)[C@H]1O and give its recorded half-life.
Result: 362
